target: MERS Mpro (Middle East respiratory syndrome-related coronavirus, UniProt K9N7C7); assay: biochemical; set-up: species or system MERS-CoV
Sequence (K9N7C7 3248-3553 limits assumed): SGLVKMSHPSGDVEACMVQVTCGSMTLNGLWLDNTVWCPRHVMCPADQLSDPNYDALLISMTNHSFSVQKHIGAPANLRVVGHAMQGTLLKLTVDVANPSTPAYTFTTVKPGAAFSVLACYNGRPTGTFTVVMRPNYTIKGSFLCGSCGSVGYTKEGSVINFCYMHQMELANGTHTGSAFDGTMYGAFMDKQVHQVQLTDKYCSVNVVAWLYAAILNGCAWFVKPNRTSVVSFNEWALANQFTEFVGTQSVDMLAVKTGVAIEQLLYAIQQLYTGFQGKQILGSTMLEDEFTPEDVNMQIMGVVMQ
Listed here: items and their measured pIC50.
For clarity, pIC50 is expressed as the negative log10 of concentration in mol/L.

Solved cases (4 shown):
O=C[C@H](C[C@@H]1CCNC1=O)NC(=O)[C@@H]1CC2(CCC2)CN1C(=O)c1cc2ccccc2[nH]1    6.71
Cc1ccc2cc(C(=O)N3C[C@H]4[C@@H]([C@H]3C(=O)N[C@H](C=O)C[C@@H]3CCNC3=O)C4(C)C)[nH]c2c1    6.46
CC(C)(C)CC(=O)N1C[C@H]2[C@@H]([C@H]1C(=O)N[C@H](C=O)C[C@@H]1CCNC1=O)C2(C)C    6.38
CC1(C)[C@@H]2[C@@H](C(=O)N[C@H](C=O)C[C@@H]3CCNC3=O)N(C(=O)c3cc4cccc(C#N)c4[nH]3)C[C@@H]21    6.75

The compound listed as O=C[C@H](C[C@@H]1CCNC1=O)NC(=O)[C@@H]1C[C@@H](C2CCCCC2)CN1C(=O)c1cc2c(F)cccc2[nH]1 has a reported pIC50 of 6.29

The compound listed as CC1(C)[C@@H]2[C@@H](C(=O)N[C@H](C=O)C[C@@H]3CCNC3=O)N(C(=O)c3cc4cc5c(cc4[nH]3)OCO5)C[C@@H]21 has a reported pIC50 of 6.33

* * *

biological target: UniProt:P0C6X5; assay: HCoV-NL63 Mpro enzymatic inhibition assay (fluorescence); format: biochemical
Sequence (P0C6X5 2940-3242 limits assumed): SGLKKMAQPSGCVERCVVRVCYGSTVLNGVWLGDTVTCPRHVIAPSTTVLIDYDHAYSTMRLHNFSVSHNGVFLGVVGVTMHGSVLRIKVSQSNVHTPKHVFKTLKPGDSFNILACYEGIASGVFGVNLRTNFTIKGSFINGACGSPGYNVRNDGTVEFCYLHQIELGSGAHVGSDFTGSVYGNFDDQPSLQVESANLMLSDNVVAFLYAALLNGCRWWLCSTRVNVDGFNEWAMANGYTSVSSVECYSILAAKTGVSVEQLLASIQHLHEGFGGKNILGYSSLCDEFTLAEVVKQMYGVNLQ
Could you mark each record True if its IC50 falls strictly under 60 nM, and False if it equals or exceeds it?

// known answers, use as guide
CC1(C)[C@@H]2[C@@H](C(=O)N[C@H](C=O)C[C@@H]3CCNC3=O)N(C(=O)C3(c4cccc(Cl)c4)CC3)C[C@@H]21    True
CC(C)c1cccc2[nH]c(C(=O)N3C[C@H]4[C@@H]([C@H]3C(=O)N[C@H](C=O)C[C@@H]3CCNC3=O)C4(C)C)cc12    False

Strictly below 60 nM: is that where IC50 of C[C@@H](C(=O)N1C[C@H]2[C@@H]([C@H]1C(=O)N[C@H](C=O)C[C@@H]1CCNC1=O)C2(C)C)c1ccccc1 sits?
False

Strictly below 60 nM: is that where IC50 of C[C@@H](C(=O)N1C[C@H]2[C@@H]([C@H]1C(=O)N[C@H](C=O)C[C@@H]1CCNC1=O)C2(C)C)C1CCCCC1 sits?
True

Strictly below 60 nM: is that where IC50 of COc1cccc2[nH]c(C(=O)N3C[C@H]4[C@@H]([C@H]3C(=O)N[C@H](C=O)C[C@@H]3CCNC3=O)C4(C)C)cc12 sits?
True

Strictly below 60 nM: is that where IC50 of CC1(C)[C@@H]2[C@@H](C(=O)N[C@H](C=O)C[C@@H]3CCNC3=O)N(C(=O)c3cc4cc(F)ccc4[nH]3)C[C@@H]21 sits?
False

Strictly below 60 nM: is that where IC50 of COc1cccc2[nH]c(C(=O)N3CC4(CC4)C[C@H]3C(=O)N[C@H](C=O)C[C@@H]3CCNC3=O)cc12 sits?
True

Strictly below 60 nM: is that where IC50 of CC1(C)[C@@H]2[C@@H](C(=O)N[C@H](C#N)C[C@@H]3CCNC3=O)N(C(=O)C3(c4ccccc4)CC3)C[C@@H]21 sits?
False

* * *

target: HCoV-OC43 Mpro (Human coronavirus OC43); test: HCoV-OC43 Mpro enzymatic inhibition assay (fluorescence); format: biochemical
Sequence (P0C6X6 3247-3549 limits assumed): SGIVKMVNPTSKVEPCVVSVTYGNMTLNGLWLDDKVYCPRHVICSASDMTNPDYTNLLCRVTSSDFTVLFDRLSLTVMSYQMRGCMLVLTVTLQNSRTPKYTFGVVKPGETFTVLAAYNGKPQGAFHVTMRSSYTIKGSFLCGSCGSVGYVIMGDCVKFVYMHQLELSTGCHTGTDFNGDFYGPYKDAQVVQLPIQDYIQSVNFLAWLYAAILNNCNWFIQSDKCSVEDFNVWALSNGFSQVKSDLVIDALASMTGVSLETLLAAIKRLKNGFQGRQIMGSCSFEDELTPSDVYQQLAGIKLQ
Could you mark each record Yes if its IC50 falls strictly under 100 nM, and No if it equals or exceeds it?

CC1(C)[C@@H]2[C@@H](C(=O)N[C@H](C=O)C[C@@H]3CCNC3=O)N(C(=O)CN3CCCCCC3)C[C@@H]21    Yes
CC1(C)[C@@H]2[C@@H](C(=O)N[C@H](C=O)C[C@@H]3CCCNC3=O)N(C(=O)c3cc4ccccc4[nH]3)C[C@@H]21    Yes
CO[C@@H]1C[C@@H](C(=O)N[C@H](C=O)C[C@@H]2CCNC2=O)N(C(=O)c2cc3ccccc3[nH]2)C1    No
N#Cc1cccc2[nH]c(C(=O)N3CC4(CC4)C[C@H]3C(=O)N[C@H](C=O)C[C@@H]3CCNC3=O)cc12    Yes
C[C@H](C(=O)N1C[C@H]2[C@@H]([C@H]1C(=O)N[C@H](C=O)C[C@@H]1CCNC1=O)C2(C)C)c1ccccc1    No
CC1(C)[C@@H]2[C@@H](C(=O)N[C@H](C=O)C[C@@H]3CCNC3=O)N(C(=O)c3cc4ccc(F)c(F)c4[nH]3)C[C@@H]21    Yes
CC(C)(C(=O)N1C[C@H]2[C@@H]([C@H]1C(=O)N[C@H](C=O)C[C@@H]1CCNC1=O)C2(C)C)c1ccccc1    No
C[C@H](C(=O)N1C[C@H]2[C@@H]([C@H]1C(=O)N[C@H](C=O)C[C@@H]1CCNC1=O)C2(C)C)C1CCCCC1    No

Strictly below 100 nM: is that where IC50 of CC1(C)C[C@@H](C(=O)N[C@H](C=O)C[C@@H]2CCNC2=O)N(C(=O)c2cc3cccc(C#N)c3[nH]2)C1 sits?
Yes

Strictly below 100 nM: is that where IC50 of Cc1ccc2cc(C(=O)N3C[C@H]4[C@@H]([C@H]3C(=O)N[C@H](C=O)C[C@@H]3CCNC3=O)C4(C)C)[nH]c2c1C sits?
Yes

Strictly below 100 nM: is that where IC50 of Cc1cccc2c1cc(C(=O)N1C[C@H]3[C@@H]([C@H]1C(=O)N[C@H](C=O)C[C@@H]1CCNC1=O)C3(C)C)n2C sits?
No

Strictly below 100 nM: is that where IC50 of CC(C)(C)CC(=O)N1C[C@H]2[C@@H]([C@H]1C(=O)N[C@H](C=O)C[C@@H]1CCNC1=O)C2(C)C sits?
No

Strictly below 100 nM: is that where IC50 of CC(C)c1ccc(F)c2[nH]c(C(=O)N3C[C@H]4[C@@H]([C@H]3C(=O)N[C@H](C=O)C[C@@H]3CCNC3=O)C4(C)C)cc12 sits?
Yes

Strictly below 100 nM: is that where IC50 of CC1(C)[C@@H]2[C@@H](C(=O)N[C@H](C=O)C[C@@H]3CCNC3=O)N(C(=O)c3cc4occc4[nH]3)C[C@@H]21 sits?
Yes

Strictly below 100 nM: is that where IC50 of CC1(C)[C@@H]2[C@@H](C(=O)N[C@H](C=O)C[C@@H]3CCNC3=O)N(C(=O)c3[nH]c4ccccc4c3-c3ccccc3)C[C@@H]21 sits?
No

Strictly below 100 nM: is that where IC50 of NC(=O)C(=O)[C@H](C[C@@H]1CCNC1=O)NC(=O)[C@@H]1CC2(CC2)CN1C(=O)c1cc2ccccc2[nH]1 sits?
Yes

* * *

biological target: UniProt K9N7C7; assay: biochemical; parameters: species or system MERS-CoV
PROPERTY_LABEL: log10(IC50) (log10 of the value in nM)
Reminder: these figures are log10 of reported IC50, in nM before transformation.

Solved cases (5 shown):
CC1(C)[C@@H]2[C@@H](C(=O)N[C@H](C=O)C[C@@H]3CCNC3=O)N(C(=O)c3cc4ccc(Cl)c(F)c4[nH]3)C[C@@H]21 [Compound 21]    2.37
CC1(C)[C@@H]2[C@@H](C(=O)N[C@H](C=O)C[C@@H]3CCCNC3=O)N(C(=O)CC3CCCCC3)C[C@@H]21 [Compound 79]    2.25
Cc1cc(Cl)cc2cc(C(=O)N3C[C@H]4[C@@H]([C@H]3C(=O)N[C@H](C=O)C[C@@H]3CCNC3=O)C4(C)C)[nH]c12 [Compound 69]    2.68
CC1(C)[C@@H]2[C@@H](C(=O)N[C@H](C=O)C[C@@H]3CCNC3=O)N(C(=O)Cc3ccc4c(c3)CCCC4)C[C@@H]21 [Compound 40]    2.37
O=C[C@H](C[C@@H]1CCNC1=O)NC(=O)[C@@H]1C[C@@H]2CCCC[C@@H]2N1C(=O)c1cc2ccccc2[nH]1 [Compound 113]    2.76

The molecule listed as CC1(C)[C@@H]2[C@@H](C(=O)N[C@H](C=O)C[C@@H]3CCNC3=O)N(C(=O)c3cc4c(F)ccc(F)c4[nH]3)C[C@@H]21 [Compound 13] has a reported log10(IC50) of 2.57

The molecule listed as CC1(C)[C@@H]2[C@@H](C(=O)N[C@H](C=O)C[C@@H]3CCNC3=O)N(C(=O)c3cc4cc(F)ccc4[nH]3)C[C@@H]21 [Compound 24] has a reported log10(IC50) of 2.43

All figures here come from patent US20260355212A1.
